Origin of the recorded values: patent US20100130721A1

- TEST TARGET: human polyclonal IgG (human)
- EXPERIMENT: SPR (Biacore), His-tagged fusion protein captured on Ni-NTA chip, human IgG injected
RESULT TYPE: kon (M⁻¹ s⁻¹)
One number for each entry, in M⁻¹ s⁻¹.

input: So what does the record say about kon for fusion protein PL1 (designed binder) ATIRANLIYADGRTQTAEFRGTFEEATAEAYRYADLLARENGRYTVDVADRGYTLNIRFAGGGGGCADDDDDDHHHHHH ?
output: 151000

input: # lookup: kon of fusion protein PL3 (designed binder) ATIRANLIYADGRTQTAEFRGTFEEATAEAYRYADLLPRENGRYTVDVADRGYTLNIRFAPGATIRANLIYADGRTQTAEFRGTFEEATAEAYRYADLLPRENGRYTVDVADRGYTLNIRFAPGATIRANLIYADGRTQTAEFRGTFEEATAEAYRYADLLPRENGRYTVDVADRGYTLNIRFAGGGGGCADDDDDDHHHHHH
output: 301000

New cases:
input: Requested read-out: kon. Entry: fusion protein PG2 (designed binder) AYRLILNGRTLRGETTTEAVDAATAERVFRQYANDNGVDGEWTYDDATRTFTVTERPEVIDASELTPAVTPGAYRLILNGRTLRGETTTEAVDAATAERVFRQYANDNGVDGEWTYDDATRTFTVTERPEVIDASELTPAVTGGGGCADDDDDDHHHHHH
output: 864000
